Target: AAV9 capsid (adeno-associated virus serotype 9)
Experiment: bind-and-elute chromatography, pure AAV9; bound at pH 7.0, eluted with 1 M MgCl2 pH 6.0; ELISA
Where no end group is shown, it is not given here. Toyopearl AF‑Amino‑650M resin = chromatographic resin to which the peptide C-terminus is conjugated
# if value of yield (AAV titer in elution fraction vs. load) reaches 60%, tag 1.0; if it stays below, tag 0.0

A selection of reference data follows.
Binder	Assigned label
FWNWHHFKG-{Toyopearl AF‑Amino‑650M resin} (Peptide immobilised on chromatographic resin; also called W4) [FWNWHHFKG-Toyopearl resin]	0.0
KWWIWAG-{Toyopearl AF‑Amino‑650M resin} (Peptide immobilised on chromatographic resin; also called W8) [KWWIWAG-Toyopearl resin]	0.0
FFNFFKG-{Toyopearl AF‑Amino‑650M resin} (Peptide immobilised on chromatographic resin; also called W10; FFNFFK-Toyopearl) [FFNFFKG-Toyopearl resin]	1.0

Now, please, on to the next binder.
Kindly determine if yield (AAV titer in elution fraction vs. load) recorded for FWWAAFFKG-{Toyopearl AF‑Amino‑650M resin} (Peptide immobilised on chromatographic resin; also called W5) [FWWAAFFKG-Toyopearl resin] is above or exactly 60%.
0.0
